B1: RSPH3 (parent)
chain: FIPAKTGKDVATQILEGELFDFDL

Variants of: B1
Assay: protein stability index of a GFP-peptide fusion (GPS, HEK-293T) (PSI 1-6); higher = more stable;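 also: lentivirally expressed fusions sorted by FACS into six bins by GFP to DsRed ratio, PSI derived from sequencing read proportions per bin multiplied by bin number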
Details: c terminus: a fixed tail appended
Property: protein stability index
// keep it numeric: no unit symbol after the value

Note protein stability index for the variant shown: FIPAKTGKDVDTQILEGELFDFDL
2.48

Note protein stability index for the variant shown: FIPAKPGKDVATQILEGELFDFDL
1.42

Note protein stability index for the variant shown: FIPAKYGKDVATQILEGELFDFDL
1.64

Note protein stability index for the variant shown: FIPAKTPKDVATQILEGELFDFDL
2.82

Note protein stability index for the variant shown: FIPAKTGQDVATQILEGELFDFDL
2.1

Note protein stability index for the variant shown: FIPAQTGKDVATQILEGELFDFDL
2.21

Note protein stability index for the variant shown: FIPAKTGKDVATQILHGELFDFDL
1.32

Note protein stability index for the variant shown: FIPALTGKDVATQILEGELFDFDL
1.85

Note protein stability index for the variant shown: FIPAKTGKDVATQILLGELFDFDL
1.73

Note protein stability index for the variant shown: FIPAKEGKDVATQILEGELFDFDL
2.43

Note protein stability index for the variant shown: FIPAKTAKDVATQILEGELFDFDL
1.83

Data provenance is the supplement of paper PMC10567573.
